Target: T1, rat VPAC2 receptor (rat, UniProt P35000 23-437)
T1 sequence (looked up): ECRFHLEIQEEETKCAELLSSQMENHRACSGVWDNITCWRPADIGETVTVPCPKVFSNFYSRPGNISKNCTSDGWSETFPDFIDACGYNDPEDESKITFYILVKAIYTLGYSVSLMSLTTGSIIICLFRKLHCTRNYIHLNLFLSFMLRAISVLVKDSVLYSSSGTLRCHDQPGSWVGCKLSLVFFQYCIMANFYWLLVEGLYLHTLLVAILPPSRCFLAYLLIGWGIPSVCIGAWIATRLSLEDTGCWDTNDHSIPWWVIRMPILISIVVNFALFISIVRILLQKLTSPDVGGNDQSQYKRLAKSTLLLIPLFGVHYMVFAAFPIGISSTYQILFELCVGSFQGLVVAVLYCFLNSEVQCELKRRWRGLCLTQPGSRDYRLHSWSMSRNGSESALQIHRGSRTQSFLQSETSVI
Assay: cell-based or functional assay
Flag rule - Rat VPAC2 Receptor: DiscoveRx: (EC50; nM) less than 40 nM flags Y; the remaining entries get N.

INSERT INTO assay_data (binder, category_label) VALUES
  ('HSDAVFTEQYTXLRXQLAXXXYLQXIXCXGGPSSGAPPPS (C6-HSDAVFTEQY(OMe)TOrnLRAibQLAAbuAibOrnYLQAibIOrnC(PEG40K)OrnGGPSSGAPPPS-NH2) [P537]', 'Y'),
  ('HSDAVFTEQYTXLRXQVAXXXYLQXIXXGGPSSGAPPPC (C6-HSDAVFTEQY(OMe)TOrnLRAibQVAAbuAibOrnYLQAibIOrnOrnGGPSSGAPPPC(PEG40K)-NH2) [P511]', 'Y'),
  ('HSDAVFTEQYTXLRXQVAAXXYLQSXXXGGPSSGAPPPS (C6-HSDAVFTEQY(OMe)TOrnLRAibQVAAAibOrnYLQSK(WPEG40K)OrnOrnGGPSSGAPPPS-NH2) [P535]', 'N'),
  ('HSDAVFTEQYTXLRXQLAXXXYLQSCXXGGPSSGAPPPS (C6-HSDAVFTEQY(OMe)TOrnLRAibQLAAbuAibOrnYLQSC(PEG40K)OrnOrnGGPSSGAPPPS-NH2) [P543]', 'N'),
  ('HSDAVFTEQYTXLRXQLAXXXYLQSIXXGGPSSGAPPPCC (C6-HSDAVFTEQY(OMe)TOrnLRAibQLAAbuAibOrnYLQSIOrnOrnGGPSSGAPPPC(PEG20K)C(PEG20K)-NH2) [P523]', 'Y'),
  ('HSDAVFTEQYTXLRXQVAAXXYLXSIXXGGPSSGAPPPS (C6-HSDAVFTEQY(OMe)TOrnLRAibQVAAAibOrnYLK(WPEG40K)SIOrnOrnGGPSSGAPPPS-NH2) [P531]', 'N');

src = patent US20080234198A1
